The measured values listed here are drawn from ChEMBL document CHEMBL1166009.

Target: Carbonic anhydrase 1 (Homo sapiens, UniProt P00915)
Sequence (P00915 2-261 limits assumed): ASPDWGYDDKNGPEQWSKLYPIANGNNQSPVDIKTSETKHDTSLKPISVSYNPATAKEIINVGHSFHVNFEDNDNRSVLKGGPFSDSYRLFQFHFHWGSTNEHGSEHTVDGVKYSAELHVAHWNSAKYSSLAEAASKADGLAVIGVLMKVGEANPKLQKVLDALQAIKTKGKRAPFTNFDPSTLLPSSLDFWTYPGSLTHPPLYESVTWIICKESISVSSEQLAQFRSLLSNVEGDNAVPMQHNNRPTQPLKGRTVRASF
experimentalEndpoint: Ki (µM)
# output: bare number, implied unit µM

Problem: Enter reported Ki observed with Carbonic anhydrase 1 (Homo sapiens, UniProt P00915) for Cc1ccc(S(=O)(=O)n2cccc2)cc1
Solution: 42.4

* * *

Target: Carbonic anhydrase 2 (Homo sapiens, UniProt P00918)
experimentalEndpoint: pKi
Value format note: pKi is -log10 of concentration (mol/L); just state the number.

Problem: Enter reported pKi observed with Carbonic anhydrase 2 (Homo sapiens, UniProt P00918) for Cc1ccc(S(=O)(=O)n2cccc2)cc1
Solution: 4.43

* * *

Target: Carbonic anhydrase 1 (Homo sapiens, UniProt P00915)
experimentalEndpoint: pIC50
Value format note: pIC50 is -log10 of concentration (mol/L); just state the number.

Problem: Enter reported pIC50 observed with Carbonic anhydrase 1 (Homo sapiens, UniProt P00915) for Cc1ccc(S(=O)(=O)n2cccc2)cc1
Solution: 4.64
